B1: HDV Ribozyme (parent)
chain: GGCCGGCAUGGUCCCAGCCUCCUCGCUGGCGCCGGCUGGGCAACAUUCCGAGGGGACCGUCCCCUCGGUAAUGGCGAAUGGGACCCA

variants of: B1; assay: self-cleavage, relative activity (ratio to wild type); higher = more cleavage; co-transcriptional
Recorded self-cleavage for the following variants
Test Readout: self-cleavage

INSERT INTO measurements (variant_spec, test_readout, value_observed) VALUES
  ('C32A C57A', 'self-cleavage', 0.295),
  ('C41G U46C', 'self-cleavage', 0.297),
  ('U27A C64U', 'self-cleavage', 0.855),
  ('C75A G80A', 'self-cleavage', 0.12),
  ('C44G A77C', 'self-cleavage', 0.297),
  ('U27G G28A', 'self-cleavage', 0.499),
  ('C22A G38C', 'self-cleavage', 0.0346),
  ('U37A C49G', 'self-cleavage', 0.201),
  ('C48G C63U', 'self-cleavage', 1.08),
  ('C58U C84U', 'self-cleavage', 0.731),
  ('C22G G68U', 'self-cleavage', 0.0583),
  ('U20C U23C', 'self-cleavage', 0.0723),
  ('A42U G52A', 'self-cleavage', 0.612),
  ('C3U C58G', 'self-cleavage', 0.767),
  ('A8G C15G', 'self-cleavage', 0.262),
  ('C18U G55U', 'self-cleavage', 0.595),
  ('G28U A43C', 'self-cleavage', 0.0755),
  ('C24G C86G', 'self-cleavage', 0.112),
  ('A43U A87C', 'self-cleavage', 0.314),
  ('U12G G40A', 'self-cleavage', 0.72),
  ('G28C U60C', 'self-cleavage', 0.0852),
  ('U23C G50A', 'self-cleavage', 0.95),
  ('C44G G82A', 'self-cleavage', 0.309),
  ('C24U C49G', 'self-cleavage', 0.536),
  ('A71U G73A', 'self-cleavage', 0.432),
  ('G17A G53A', 'self-cleavage', 1.02),
  ('C15U U69A', 'self-cleavage', 1.15),
  ('U20A A70G', 'self-cleavage', 0.147),
  ('A45C G54U', 'self-cleavage', 0.95),
  ('G31U C58G', 'self-cleavage', 0.282),
  ('C18U C64U', 'self-cleavage', 0.751),
  ('A16G U20A', 'self-cleavage', 0.138),
  ('G25A C49A', 'self-cleavage', 0.101),
  ('G34C C61G', 'self-cleavage', 0.231),
  ('G2U G67C', 'self-cleavage', 0.0678),
  ('G17U C75U', 'self-cleavage', 0.181),
  ('C30U A51G', 'self-cleavage', 0.784),
  ('G54U C61A', 'self-cleavage', 1.04),
  ('C21G C58A', 'self-cleavage', 0.0396);
